Target: T1, Brn2 DNA-binding domain (BD-Brn2) (Mus musculus (B6), UniProt P31360 336-435)
T1 sequence: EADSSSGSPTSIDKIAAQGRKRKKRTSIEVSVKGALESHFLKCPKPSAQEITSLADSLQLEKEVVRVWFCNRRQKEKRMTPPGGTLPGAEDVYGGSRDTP
Assay: EMSA; 10% glycerol, 20 mM HEPES pH 7.8, 45 mM KCl, 10 mM NaCl, 1 mM EDTA, 1 mM DTT, 0.2 ug/uL BSA, 0.1% NP-40, 50 ng poly-dIdC; 20 ng each GST protein; room temperature 30 min (heterodimers 4 C); 6% PAGE 0.25x TBE
Details: protein: recombinant; tags: GST (N-terminal, pGEX-6P-1); label: 32P-dCTP fill-in of the 5' (dG)5 overhangs of both strands (Methods; control probes are given with GGG)
Readout label: binding result

Binder: 68 (dsDNA) DNA 1: GGGGGTTTGTTTGTTTGTTTAAAGGATTTATTTATTTATCCCCC DNA 2: GGGGGATAAATAAATAAATCCTTTAAACAAACAAACAAACCCCC
Readout label: binding result
Measured result: binds
//
Binder: 49 (dsDNA) DNA 1: GGGGGCTCTCTGATTTGTGAGTATTGACAGAGAATCCCCC DNA 2: GGGGGATTCTCTGTCAATACTCACAAATCAGAGAGCCCCC
Readout label: binding result
Measured result: no binding
//
Binder: 115 (dsDNA) DNA 1: GGGGGCTGGCCAGACAATGACGATATTTTTTTCCTTCACCCCCC DNA 2: GGGGGGTGAAGGAAAAAAATATCGTCATTGTCTGGCCAGCCCCC
Readout label: binding result
Measured result: no binding
//
Binder: 57 (dsDNA) DNA 1: GGGGGCCTAAGATTCTTAATCTGACATTGTAGTCCCTACCCCC DNA 2: GGGGGTAGGGACTACAATGTCAGATTAAGAATCTTAGGCCCCC
Readout label: binding result
Measured result: no binding
//
Binder: 118 (dsDNA) DNA 1: GGGGGGACAAGGGTCAATTTGCTAGACAAAGATCTTCACCCCC DNA 2: GGGGGTGAAGATCTTTGTCTAGCAAATTGACCCTTGTCCCCCC
Readout label: binding result
Measured result: no binding

Prompt: Quote binding result reported for 127 (dsDNA) DNA 1: GGGGGTTTTGTTTTTTGTTTAAAGCAATAACATATTCAGCCCCC DNA 2: GGGGGCTGAATATGTTATTGCTTTAAACAAAAAACAAAACCCCC please.
Completion: binds

Prompt: Return binding result (reported value) for this binder: 78 (dsDNA) DNA 1: GGGGGTCTTTTGATTTGTCCGATTTAGGTTTTAAACCCCC DNA 2: GGGGGTTTAAAACCTAAATCGGACAAATCAAAAGACCCCC
Completion: no binding

Prompt: Given the binder 102b (dsDNA) DNA 1: GGGGGAAAACAAAACAAAACTGGATTTGGCGATTGTATCCCCC DNA 2: GGGGGATACAATCGCCAAATCCAGTTTTGTTTTGTTTTCCCCC , write its reported binding result.
Completion: no binding

Prompt: Read the entry 56 (dsDNA) DNA 1: GGGGGACACTTATACAATAATAGTATTTATTAATAGTATCCCCC DNA 2: GGGGGATACTATTAATAAATACTATTATTGTATAAGTGTCCCCC and write its reported binding result.
Completion: binds

Prompt: Consider the binder 102a (dsDNA) DNA 1: GGGGGGGATCCCCACAATACAAAAAAAACAAAAACAAAACCCCCC DNA 2: GGGGGGTTTTGTTTTTGTTTTTTTTGTATTGTGGGGATCCCCCCC . State its measured binding result.
Completion: no binding

Provenance of the data: paper PMC3713010
